This collection of values is drawn from ChEMBL document CHEMBL1156597.

Below, each of the compounds is paired with its reported TGI value.
Test system: LoVo
ASSAY SUMMARY: Cytotoxicity against human doxorubicin resistant LoVo cells after 48 hrs by SRB assay
Assay type: functional
Number in nM, nothing else.

// worked examples, TGI included
MOL: C/C=C1\NC(=O)[C@H](Cc2ccccc2)NC(=O)[C@@H](C(C)C)NC(=O)[C@@H]([C@H](C)CC)NC(=O)[C@H](NC(=O)[C@H](NC(=O)[C@H](CCCN)NC(=O)[C@H]2CCCN2C(=O)[C@H](NC(=O)[C@@H](NC(=O)[C@@H](NC(=O)[C@H](NC(=O)CC[C@@H](C)CC)C(C)C)[C@@H](C)OC(=O)C(F)(F)F)C(C)C)C(C)C)[C@H](C)CC)[C@H](C)OC(=O)[C@H](C(C)C)NC1=O
ASSAYED TARGET: LoVo
UNIT LABEL: nM
TGI: 222
--
MOL: C/C=C1\NC(=O)[C@H](Cc2ccccc2)NC(=O)[C@@H](C(C)C)NC(=O)[C@@H]([C@H](C)CC)NC(=O)[C@H](NC(=O)[C@H](NC(=O)[C@H](CCCCN)NC(=O)[C@H]2CCCN2C(=O)[C@H](NC(=O)[C@@H](NC(=O)[C@@H](NC(=O)[C@H](NC(=O)CCCC(C)C)C(C)C)[C@@H](C)O)C(C)C)C(C)C)[C@H](C)CC)[C@H](C)OC(=O)[C@H](C(C)C)NC1=O
ASSAYED TARGET: LoVo
UNIT LABEL: nM
TGI: 280

Shift focus to the following entry.
Find the measured TGI: item C/C=C1\NC(=O)[C@H](Cc2ccc(OC)cc2)NC(=O)[C@@H](C(C)C)NC(=O)[C@@H]([C@H](C)CC)NC(=O)[C@H](NC(=O)[C@H](NC(=O)[C@H](CCCN)NC(=O)[C@H]2CCCN2C(=O)[C@H](NC(=O)[C@@H](NC(=O)[C@@H](NC(=O)[C@H](NC(=O)CC[C@@H](C)CC)C(C)C)[C@@H](C)O)C(C)C)C(C)C)[C@H](C)CC)[C@H](C)OC(=O)[C@H](C(C)C)NC1=O , target or system LoVo.
214

----------
Tested on: DU-145
ASSAY SUMMARY: Cytotoxicity against human DU145 cells after 48 hrs by SRB assay
Format: functional, cell-based
CONDITIONS USED: Homo sapiens, DU-145, 48 h; read-out: LC50 (the source's name)
QUANTITY MEASURED: CC50
Report the figure along with its unit, number first.

MOL: C/C=C1\NC(=O)[C@H](Cc2ccccc2)NC(=O)[C@@H](C(C)C)NC(=O)[C@@H]([C@H](C)CC)NC(=O)[C@H](NC(=O)[C@H](NC(=O)[C@H](CCCNC(=O)CCOCCOCCNC(=O)OCC2c3ccccc3-c3ccccc32)NC(=O)[C@H]2CCCN2C(=O)[C@H](NC(=O)[C@@H](NC(=O)[C@@H](NC(=O)[C@H](NC(=O)CCCC(C)C)C(C)C)[C@@H](C)O)C(C)C)C(C)C)[C@H](C)CC)[C@H](C)OC(=O)[C@H](C(C)C)NC1=O
RESULT: 0.557 µM
--
MOL: C/C=C1\NC(=O)[C@H](Cc2ccccc2)NC(=O)[C@@H](C(C)C)NC(=O)[C@@H]([C@H](C)CC)NC(=O)[C@H](NC(=O)[C@H](NC(=O)[C@H](CCCN)NC(=O)[C@H]2Cc3ccccc3CN2C(=O)[C@H](NC(=O)[C@@H](NC(=O)[C@@H](NC(=O)[C@H](NC(=O)CC[C@@H](C)CC)C(C)C)[C@@H](C)O)C(C)C)C(C)C)[C@H](C)CC)[C@H](C)OC(=O)[C@H](C(C)C)NC1=O
RESULT: 1.37 µM

Shift focus to the following entry.
I'd like to know its CC50. The compound in question is C/C=C1\NC(=O)[C@H](Cc2ccccc2)NC(=O)[C@@H](C(C)C)NC(=O)[C@@H]([C@H](C)CC)NC(=O)[C@H](NC(=O)[C@H](NC(=O)[C@H](CCCN)NC(=O)[C@H]2CCCN2C(=O)[C@H](NC(=O)[C@@H](NC(=O)[C@@H](NC(=O)[C@H](NC(=O)CC[C@@H](C)CC)C(C)C)[C@@H](C)OC(=O)C(F)(F)F)C(C)C)C(C)C)[C@H](C)CC)[C@H](C)OC(=O)[C@H](C(C)C)NC1=O
0.914 µM
